Measured TGI, listed per entry.
- Test system: HL-60(TB) leukemia
- Test details: NCI tumour cell line growth inhibition, 48 h

>  <Compound>
O=C(Cc1cccs1)N[C@@H]1C(=O)N2C(C(=O)OC(c3ccccc3)c3ccccc3)=C(CO)CS[C@H]12

>  <Measured on>
HL-60(TB) leukemia

>  <Bound sign>
>

>  <TGI, µM>
100

$$$$
>  <Compound>
CC1=CC2C(O1)C1C(=O)C=CC(=O)C1=CC2[N+](=O)[O-] (stereo not given)

>  <Measured on>
HL-60(TB) leukemia

>  <Bound sign>
>

>  <TGI, µM>
22.5

$$$$
>  <Compound>
CNS(=O)(=O)NNS(=O)(=O)c1ccc2ccccc2c1

>  <Measured on>
HL-60(TB) leukemia

>  <Bound sign>
>

>  <TGI, µM>
100

$$$$
>  <Compound>
CC(C)=CC(=O)C1c2cccc(O)c2C(=O)c2c(O)cc(C)cc21 (stereo not given)

>  <Measured on>
HL-60(TB) leukemia

>  <Bound sign>
=

>  <TGI, µM>
9.15

$$$$
>  <Compound>
O=C(CC1(O)C(=O)Nc2c(Cl)cc(Cl)cc21)c1ccc(Br)cc1Br (stereo not given)

>  <Measured on>
HL-60(TB) leukemia

>  <Bound sign>
=

>  <TGI, µM>
18.1

$$$$

---

Measured GI50, listed per entry.
- Tested on: NCI/ADR-RES ovarian
- Test details: NCI tumour cell line growth inhibition, 48 h

>  <Molecule>
O=S(=O)(NC1=NCCN1C(=S)SN1CCn2c1nsc2=S)c1ccc(OC(F)(F)F)cc1

>  <GI50>
20.5 µM

$$$$
>  <Molecule>
Cc1cc(I)cc(CN(C)CCCCN2CCCCC2)c1O

>  <GI50>
19.5 µM

$$$$
>  <Molecule>
COC1=CC(=O)c2nc(-c3ccncc3)[nH]c2C1=O

>  <GI50>
> 100 µM

$$$$
>  <Molecule>
O=C1/C(=C/c2cccc([N+](=O)[O-])c2)COc2ccc(O)cc21

>  <GI50>
2.93 µM

$$$$
>  <Molecule>
COc1ccc2c(c1)/C(=C/c1c(C)nc3sc(C)nn13)C(=O)N2

>  <GI50>
1.83 µM

$$$$
>  <Molecule>
Cn1c2ccccc2c2c(Nc3ccccc3)c3ccccc3nc21

>  <GI50>
54.1 µM

$$$$
>  <Molecule>
CO[C@H](C(=O)[C@@H](O)[C@@H](C)O)[C@@H]1Cc2cc3cc(O[C@H]4C[C@@H](O[C@H]5C[C@@H](O)[C@H](O)C(C)O5)[C@H](O)C(C)O4)c(C)c(O)c3c(O)c2C(=O)[C@H]1O[C@H]1C[C@@H](O[C@H]2C[C@@H](O[C@H]3C[C@](C)(O)C(=O)C(C)O3)[C@@H](O)C(C)O2)[C@H](O)C(C)O1 (some centres not stated)

>  <GI50>
15.3 µM

$$$$
>  <Molecule>
CSc1nc2c(c(=O)[nH]1)N=C1c3ccccc3C(=O)C1C(c1ccccc1)N2 (configuration not stated)

>  <GI50>
4.54 µM

$$$$
>  <Molecule>
Cc1ccc(NC2=C(Cl)C(=O)N(Cc3ccccc3)C2=O)cc1O

>  <GI50>
30.8 µM

$$$$
>  <Molecule>
CCC(CO)Nc1nc2ccc(Cl)cc2c2ccccc12 (configuration not stated)

>  <GI50>
5.95 µM

$$$$
>  <Molecule>
O=C1CC(c2ccc3c(c2)OCO3)Nc2ccccc21 (configuration not stated)

>  <GI50>
11.8 µM

$$$$
>  <Molecule>
CC/C=C\CCC/C=C1/C(=O)C=C[C@@H]1C/C=C\CCCC(=O)OC

>  <GI50>
3.45 µM

$$$$

Entry source: PubChem BioAssay (NCI)
